# study-system: Cytochrome P450 2C9 (Homo sapiens)
# method-notes: Cytochrome panel assay with activity outcomes
# experimental-parameters: recombinant CYP, pro-luciferin dealkylation, luminescence, p450-cyp2c9; series mostly up to 57.1 µM
Among all 16,000 compounds or so, about 4,000 (25%) were called active. About 26% were inconclusive and are not listed. Calls come from the whole dose curve; as a rule, active = well fitted curve in the direction sought with a large enough effect; inconclusive = small, poorly fitted or top-dose-only effect, or effect the other way; inactive = no such curve, though single readings can be large or run the other way. The list is a sample of the results.
# output must be one of label 1 = active, label 0 = inactive

Request: Per the assay record, what outcome was assigned to "Cn1c(=O)c(-c2cccs2)nc2cnc(OCc3ccccc3)nc21" ?
Result: label 0

Request: Per the assay record, what outcome was assigned to "COc1ccc(C(=O)N2CCC3(CCCN(C(=O)Nc4cccc(F)c4)C3)CC2)cc1" ?
Result: label 0

Request: Per the assay record, what outcome was assigned to "COC(=O)c1ccc(NC(=O)N2CCC(O)(c3cccnc3)CC2)cc1" ?
Result: label 0

Request: Per the assay record, what outcome was assigned to "COc1cc2cc3c4cc(OC)c(OC)cc4cc[n+]3c(C)c2cc1OC" ?
Result: label 0

Request: Per the assay record, what outcome was assigned to "O=C(/C=C/Nc1ccccc1)c1ccc(Oc2ncccn2)cc1" ?
Result: label 0

Continuing:
Request: Per the assay record, what outcome was assigned to "CCOC(=O)N1CCC(NC(=O)CSCc2cnn(-c3ccccc3)c2-n2cccc2)CC1" ?
Result: label 1

Request: Per the assay record, what outcome was assigned to "O=C(c1ccc(Cl)cc1)N1CCCC(c2ccccc2)=N1" ?
Result: label 1

Request: Per the assay record, what outcome was assigned to CC(C)(C)n1nnnc1C(c1cccnc1)N(Cc1ccccc1)Cc1ccco1 (stereo not given) ?
Result: label 1

Request: Per the assay record, what outcome was assigned to "COc1ccccc1CC(=O)Nc1cc2oc3ccccc3c2cc1OC" ?
Result: label 1

Request: Per the assay record, what outcome was assigned to "O=C(c1cccc(F)c1)N1CCC2(CCN(Cc3ccncc3)CC2)CC1" ?
Result: label 1

Request: Per the assay record, what outcome was assigned to "NC(=O)c1cc[n+](CC2=C(C(=O)[O-])N3C(=O)[C@@H](NC(=O)Cc4cccs4)[C@@H]3SC2)cc1" ?
Result: label 0

Request: Per the assay record, what outcome was assigned to "Cc1cc(C)c(S(=O)(=O)N2CCCCC2)c(C)c1N(C)S(=O)(=O)c1ccccc1" ?
Result: label 1
